Recorded values, source patent US20240382483A1.

# testedTarget: intracellular phosphorylation of EGFR in NCI-H1975 cell line that harbors the EGFR L858R T790M mutations (Homo sapiens, UniProt P00533, L858R/T790M)
# Construct: NCI-H1975 cell line that harbors the EGFR L858R T790M mutations (ATCC, CRL-5908); host or cells: NCI-H1975
# Sequence (P00533 25-1210 T790M/L858R): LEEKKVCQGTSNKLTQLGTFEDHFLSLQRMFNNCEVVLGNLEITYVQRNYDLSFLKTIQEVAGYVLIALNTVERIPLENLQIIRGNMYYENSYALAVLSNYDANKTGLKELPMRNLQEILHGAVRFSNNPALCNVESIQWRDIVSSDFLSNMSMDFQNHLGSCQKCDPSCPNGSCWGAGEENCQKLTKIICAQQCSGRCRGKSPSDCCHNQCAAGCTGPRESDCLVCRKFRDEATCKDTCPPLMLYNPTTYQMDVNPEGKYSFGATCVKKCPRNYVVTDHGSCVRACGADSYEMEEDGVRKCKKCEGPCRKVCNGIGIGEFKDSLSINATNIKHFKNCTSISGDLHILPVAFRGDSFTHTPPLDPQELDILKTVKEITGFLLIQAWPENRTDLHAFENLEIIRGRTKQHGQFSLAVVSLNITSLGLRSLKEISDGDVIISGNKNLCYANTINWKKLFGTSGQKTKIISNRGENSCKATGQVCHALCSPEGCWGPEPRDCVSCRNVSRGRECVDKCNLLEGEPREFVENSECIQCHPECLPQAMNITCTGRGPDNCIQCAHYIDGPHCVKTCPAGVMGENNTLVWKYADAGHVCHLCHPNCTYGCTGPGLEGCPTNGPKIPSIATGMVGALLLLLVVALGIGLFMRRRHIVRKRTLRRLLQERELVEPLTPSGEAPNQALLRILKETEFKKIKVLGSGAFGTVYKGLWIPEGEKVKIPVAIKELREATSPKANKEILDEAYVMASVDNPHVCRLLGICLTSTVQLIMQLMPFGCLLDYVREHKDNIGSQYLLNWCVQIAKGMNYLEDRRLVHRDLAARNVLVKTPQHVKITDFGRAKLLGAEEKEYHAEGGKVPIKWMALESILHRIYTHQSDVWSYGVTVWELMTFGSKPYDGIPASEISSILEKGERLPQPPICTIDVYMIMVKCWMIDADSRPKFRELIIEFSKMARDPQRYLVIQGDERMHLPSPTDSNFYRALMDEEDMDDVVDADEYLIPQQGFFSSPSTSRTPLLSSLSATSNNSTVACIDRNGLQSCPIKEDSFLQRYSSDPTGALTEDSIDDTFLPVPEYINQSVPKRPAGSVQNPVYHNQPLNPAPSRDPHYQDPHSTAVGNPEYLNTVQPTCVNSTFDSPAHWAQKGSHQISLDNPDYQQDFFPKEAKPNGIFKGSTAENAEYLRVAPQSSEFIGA
# assayNotes: NCI-H1975 pEGFR AlphaLISA assay
# Type: cell-based
# cond: NCI-H1975 cells (EGFR L858R T790M), p-EGFR (Tyr1068), 4-5 hours incubation; read-out: Ext pEGFR H1975 GMean IC50 (nM) Protocol: @Pharmaron AlphaLISA (Num)
valueKind: IC50

Take a look at these entries with their results.
Summary for this compound, CC(C)c1cnc(N2CC(n3ccnn3)C2)c2cnc(Nc3ccnc(N4CC[C@@H](O)[C@@](C)(F)C4)n3)cc12 [Example 89] : IC50 is < 10 nM

IC50 in this record for CC(C)c1cnc(-c2cnn(C3CN(C)C3)c2)c2cnc(Nc3ccnc(N4CC[C@@H](O)[C@@](C)(F)C4)n3)cc12 [Example 22] : > 50 nM

Item: CC(C)c1cnc(N2CCC23COC3)c2cnc(Nc3ccnc(N4CC[C@@H](O)[C@@](C)(F)C4)n3)cc12 [Example 53] | IC50: 20 to 30 nM

Consider [2H]C([2H])([2H])O[C@H]1CCN(c2nccc(Nc3cc4c(C(C)C)cnc(N5C[C@H](O)[C@H]5C)c4cn3)n2)C[C@H]1F [Example 138] . Its measured IC50 is 10 to 20 nM

Lab note: CC(C)c1ccc(N2CC(C)(c3nnco3)C2)c2cnc(Nc3ccnc(N4CC[C@@H](O)[C@@](C)(F)C4)n3)cc12 [Example 113] gave IC50 of 10 to 20 nM

---
# IC50 of CO[C@@H]1CCN(c2nccc(Nc3cc4c(C(C)C)cnc(N5C[C@H](OCCO)[C@H]5C)c4cn3)n2)C[C@@H]1F [Example 148] = < 10 nM

Per the record, CO[C@@H]1CCN(c2nccc(Nc3cc4c(C(C)C)cnc(N5CCC56CN(C)C6)c4cn3)n2)C[C@@H]1F [Example 41] has IC50 of 30 to 50 nM

The recorded IC50 for entry CO[C@H]1CCN(c2nccc(Nc3cc4c(C(C)C)cnc(N5CCC56CN(C)C6)c4cn3)n2)C[C@H]1F [Example 42] equals > 50 nM

GET /value?item= CO[C@@H]1CCN(c2nccc(Nc3cc4c(C(C)C)ncc(N5C[C@H](O)[C@H]5C)c4cn3)n2)C[C@@H]1O (single isomer, unassigned) [Example 119] &field=IC50 returns > 50 nM

* * *

# testedTarget: EGFR (L858R T790M C797S) (Homo sapiens, UniProt P00533, C797S/L858R/T790M)
# Construct: purchased SignalChem E10-122VG
# Sequence (P00533 25-1210 T790M/C797S/L858R): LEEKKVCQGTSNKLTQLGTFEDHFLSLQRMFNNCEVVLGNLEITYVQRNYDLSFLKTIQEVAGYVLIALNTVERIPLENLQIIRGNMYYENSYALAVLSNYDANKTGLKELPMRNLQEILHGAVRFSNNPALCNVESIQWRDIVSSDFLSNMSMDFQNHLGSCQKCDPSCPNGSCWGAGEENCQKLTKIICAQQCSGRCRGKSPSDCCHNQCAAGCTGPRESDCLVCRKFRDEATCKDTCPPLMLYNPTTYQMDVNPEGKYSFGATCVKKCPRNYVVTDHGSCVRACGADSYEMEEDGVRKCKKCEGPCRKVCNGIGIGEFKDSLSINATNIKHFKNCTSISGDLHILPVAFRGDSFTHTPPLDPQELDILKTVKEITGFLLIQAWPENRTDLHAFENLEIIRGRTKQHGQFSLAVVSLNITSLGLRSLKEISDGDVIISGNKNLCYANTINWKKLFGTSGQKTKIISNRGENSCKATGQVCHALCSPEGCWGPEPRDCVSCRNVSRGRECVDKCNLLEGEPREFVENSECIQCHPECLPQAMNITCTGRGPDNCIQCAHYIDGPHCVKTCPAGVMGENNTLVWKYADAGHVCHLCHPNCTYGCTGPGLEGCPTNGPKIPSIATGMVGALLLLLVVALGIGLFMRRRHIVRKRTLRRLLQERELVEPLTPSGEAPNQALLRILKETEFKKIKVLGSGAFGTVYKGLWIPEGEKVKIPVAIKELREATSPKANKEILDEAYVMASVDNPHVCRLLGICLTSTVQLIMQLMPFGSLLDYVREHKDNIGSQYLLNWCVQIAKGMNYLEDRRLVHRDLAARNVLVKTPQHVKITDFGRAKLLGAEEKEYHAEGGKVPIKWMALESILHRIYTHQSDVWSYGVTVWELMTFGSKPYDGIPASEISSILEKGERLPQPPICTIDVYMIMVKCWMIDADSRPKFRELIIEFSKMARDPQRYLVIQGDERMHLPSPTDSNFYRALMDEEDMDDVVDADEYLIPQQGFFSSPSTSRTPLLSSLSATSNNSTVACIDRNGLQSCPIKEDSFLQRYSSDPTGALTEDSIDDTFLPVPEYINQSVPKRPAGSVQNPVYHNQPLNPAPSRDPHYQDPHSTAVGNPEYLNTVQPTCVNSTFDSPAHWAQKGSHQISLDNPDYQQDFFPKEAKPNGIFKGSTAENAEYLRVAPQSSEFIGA
# assayNotes: Biochemical EGFR inhibition assay (Caliper mobility shift), EGFR LRTMCS
# cond: LRTMCS (PH) IC50 (nM) @ 1 mM ATP (Num), EGFR LRTMCS mutant
Structures can show the parent of a compound that is named as a salt.
Recorded IC50 values for a group of compounds are listed next.

The recorded IC50 for CC(C)c1cnc(N2CC(F)(C(=O)N(C)C)C2)c2cnc(Nc3ccnc(N4CC[C@@H](O)[C@@](C)(F)C4)n3)cc12 is 15 to 20 nM

Continuing:
The reported IC50 of the compound CC(C)c1cnc(N2CC(O)C2)c2cnc(Nc3ccnc(N4CCC5(CCO5)CC4)n3)cc12 was 15 to 20 nM

Reported IC50 for CO[C@H]1CCN(c2nccc(Nc3cc4c(C(C)C)ccc(N5CC[C@H]5CN)c4cn3)n2)C[C@H]1F was < 15 nM

Recorded IC50 (compound CC(C)c1cnc(N2C[C@H](O)[C@H]2C)c2cnc(Nc3ccnc(N4CC[C@@H](O)C5(CC5)C4)n3)cc12 (single isomer, unassigned) ): < 15 nM

// sample CC(C)c1cnc(N2CCC23CN(C)C3)c2cnc(Nc3ccnc(N4CC[C@@]5(CCO5)C(F)(F)C4)n3)cc12 (single isomer, unassigned) , its IC50 was < 15 nM

Memo: CC(C)c1cnc(N2CC(n3ccnn3)C2)c2cnc(Nc3ccnc(N4CC[C@@H](O)[C@@](C)(F)C4)n3)cc12 , reported IC50: < 15 nM

Lab book: IC50 of CC(C)c1cnc(N2C[C@H](O)[C@H]2C)c2cnc(Nc3ccnc(N4CCC(C)(O)CC4)n3)cc12 noted as < 15 nM

// field: IC50; key: COCCN1CC2(CCN2c2ncc(C(C)C)c3cc(Nc4ccnc(N5CC[C@@H](O)[C@@](C)(F)C5)n4)ncc23)C1 ; value = < 15 nM

According to the records, this compound C[C@@H]1CCN1c1ncc([C@@H](C)C(C)(C)O)c2cc(Nc3ccnc(N4CC[C@@H](O)[C@@](C)(F)C4)n3)ncc12 (single isomer, unassigned) displays IC50 of < 15 nM

Query CC(C)c1cnc(N2CC[C@H]2CN(C)C)c2cnc(Nc3ccnc(N4CC[C@@H](O)[C@@](C)(F)C4)n3)cc12 [Example 48, trifluoroacetate] yields IC50 of < 15 nM

For reference, reported IC50 for CC(C)c1cnc(N2CCC2)c2cnc(Nc3ccnc(N4CC[C@@H](O)[C@@](C)(F)C4)n3)cc12 stands at < 15 nM

In plain terms, CC(C)c1cnc(N2CC[C@H]2C)c2cnc(Nc3ccnc(N4CC[C@@H](OCCN(C)C)[C@@H](F)C4)n3)cc12 has a documented IC50 of < 15 nM

GET /value?item= C[C@H](c1cnc(N2CC[C@H]2C)c2cnc(Nc3ccnc(N4CC[C@@H](O)[C@@](C)(F)C4)n3)cc12)C1COC1 (single isomer, unassigned) &field=IC50 returns < 15 nM

// IC50 lookup, compound = CC(=O)N1CC(Cc2ccc(C(C)C)c3cc(Nc4ccnc(N5CC[C@@H](O)[C@@](C)(F)C5)n4)ncc23)C1 , result: < 15 nM

Per the record, CC(C)c1cnc(N2C[C@@H](F)[C@H]2C)c2cnc(Nc3ccnc(N4CC[C@@H](O)[C@@](C)(F)C4)n3)cc12 (single isomer, unassigned) has IC50 of < 15 nM

Short answer for CCc1cnc(N2CC[C@@H]2C)c2cnc(Nc3ccnc(N4CC[C@@H](O)[C@@](C)(F)C4)n3)cc12 (single isomer, unassigned) : IC50 was 15 to 20 nM

Input CC(C)c1cnc(N2CCC3(C2)CC3(F)F)c2cnc(Nc3ccnc(N4CC[C@@H](O)[C@@](C)(F)C4)n3)cc12 (some centres unmarked) . Output IC50: 15 to 20 nM

The reported value for CO[C@@H]1CCN(c2nccc(Nc3cc4c(C(C)C)cnc(N5CC(F)C5)c4cn3)n2)C[C@@H]1O (single isomer, unassigned) in terms of IC50 is 20 to 30 nM

For this compound ( CC(C)c1cnc(N2CC[C@@H]2C)c2cnc(Nc3ccnc(N4CC[C@H](O)[C@H](F)C4)n3)cc12 (single isomer, unassigned) ), measured IC50 is < 15 nM

// CC(C)c1cnc(N2C[C@@H](F)[C@H](F)C2)c2cnc(Nc3ccnc(N4CC[C@@H](O)[C@@](C)(F)C4)n3)cc12 (single isomer, unassigned) : IC50 value = < 15 nM

* * *

# testedTarget: intracellular phosphorylation of EGFR in NCI-H1975 cell line that harbors the EGFR L858R T790M mutations (Homo sapiens, UniProt P00533, L858R/T790M)
# Construct: NCI-H1975 cell line that harbors the EGFR L858R T790M mutations (ATCC, CRL-5908); host or cells: NCI-H1975
# assayNotes: NCI-H1975 pEGFR AlphaLISA assay
# Format: cell-based
# cond: NCI-H1975 cells (EGFR L858R T790M), p-EGFR (Tyr1068), 4-5 hours incubation; read-out: Ext pEGFR H1975 GMean IC50 (nM) Protocol: @Pharmaron AlphaLISA (Num)
valueKind: IC50

For this molecule ( CC(C)c1cnc(-c2nc[nH]n2)c2cnc(Nc3ccnc(N4CC[C@@H](O)[C@@](C)(F)C4)n3)cc12 ), measured IC50 is 30 to 50 nM

Per the record, CC(C)c1cnc(N2C[C@H](n3ccnn3)[C@H]2C)c2cnc(Nc3ccnc(N4CCC(C)(O)CC4)n3)cc12 has IC50 of 20 to 30 nM

Entry CO[C@@H]1CCN(c2cc(Nc3cc4c(C(C)C)ccc(N5CC(n6ccnn6)C5)c4cn3)ccn2)C[C@@H]1O (single isomer, unassigned) — recorded IC50 = 10 to 20 nM

Reported IC50 ( CC(C)c1cnc(N2CC(O)(CC#N)C2)c2cnc(Nc3ccnc(N4CC[C@@H](O)[C@@](C)(F)C4)n3)cc12 ) = > 50 nM

Entry CC(C)c1cnc(N2CC[C@H]2C(F)F)c2cnc(Nc3ccnc(N4CC[C@@H](O)[C@@](C)(F)C4)n3)cc12 (single isomer, unassigned) ; IC50 = 10 to 20 nM

Measured IC50, CC(C)c1cnc(N2CC3(CCS3(=O)=O)C2)c2cnc(Nc3ccnc(N4CC[C@@H](O)[C@@](C)(F)C4)n3)cc12 : 10 to 20 nM

# IC50 of CC(C)c1cnc(N2CCC23CN(C(C)C)C3)c2cnc(Nc3ccnc(N4CC[C@@H](O)[C@@](C)(F)C4)n3)cc12 = 20 to 30 nM

molecule CC(C)c1cnc(N2C[C@H](O)[C@H]2C)c2cnc(Nc3ccnc(N4CC[C@H](O)[C@H](F)C4)n3)cc12 , IC50 observed: 10 to 20 nM

New cases:
In plain terms, CC(C)c1cnc(N2CC[C@H]2C)c2cnc(Nc3ccnc(N4CC[C@H](OCCO)[C@H](F)C4)n3)cc12 has a documented IC50 of < 10 nM
